result type: logP

[
  {
    "given smiles": "Fc1ccc(C=NN=c2ccn(Cc3ccccc3)cc2)cc1",
    "logP": 3.7
  },
  {
    "given smiles": "Clc1ccccc1C=NN=c1ccn(Cc2c(Cl)cccc2Cl)cc1",
    "logP": 3.9
  },
  {
    "given smiles": "Cc1ccc(C=NN=c2ccn(CCCCCc3ccccc3)cc2)cc1",
    "logP": 4.1
  },
  {
    "given smiles": "Brc1ccc(C=NN=c2ccn(Cc3ccccc3)cc2)cc1",
    "logP": 3.9
  },
  {
    "given smiles": "Cc1cccc(C=NN=c2ccn(CCCN3C(=O)c4ccccc4C3=O)cc2)c1",
    "logP": 3.8
  },
  {
    "given smiles": "Clc1cccc(Cl)c1C=NN=c1ccn(Cc2ccccc2)cc1",
    "logP": 3.9
  },
  {
    "given smiles": "COc1ccc(C=NN=c2ccn(CCCCc3ccccc3)cc2)cc1",
    "logP": 3.4
  },
  {
    "given smiles": "COc1ccccc1C=NN=c1ccn(CCCc2ccccc2)cc1",
    "logP": 3.4
  },
  {
    "given smiles": "Clc1cccc(Cl)c1Cn1ccc(=NN=Cc2c3ccccc3cc3ccccc23)cc1",
    "logP": 4.4
  },
  {
    "given smiles": "Cc1cccc(C=NN=c2ccn(CCCc3ccccc3)cc2)c1",
    "logP": 4
  },
  {
    "given smiles": "Cc1ccc(C=NN=c2ccn(Cc3ccc4ccccc4c3)cc2)cc1",
    "logP": 4
  }
]

----------
result type: logP

[
  {
    "given smiles": "Fc1cccc(C=NN=c2ccn(Cc3ccccc3)cc2)c1",
    "logP": 3.7
  },
  {
    "given smiles": "C(=NN=c1ccn(CCc2ccccc2)cc1)c1cccc2ccccc12",
    "logP": 4.3
  },
  {
    "given smiles": "COc1cccc(OC)c1C=NN=c1ccn(CCCCc2ccccc2)cc1",
    "logP": 3.4
  },
  {
    "given smiles": "O=[N+]([O-])c1ccc(C=NN=c2ccn(CCc3ccccc3)cc2)cc1",
    "logP": 3.9
  },
  {
    "given smiles": "O=[N+]([O-])c1ccc(C=NN=c2ccn(Cc3c(Cl)cccc3Cl)cc2)cc1",
    "logP": 4
  },
  {
    "given smiles": "Fc1ccc(Br)cc1Cn1ccc(=NN=Cc2ccc(Cl)cc2)cc1",
    "logP": 4
  },
  {
    "given smiles": "C(=NN=c1ccn(Cc2ccccc2)cc1)c1ccc2ccccc2c1",
    "logP": 4.2
  },
  {
    "given smiles": "C(CCc1ccccc1)=NN=c1ccn(CCCc2ccccc2)cc1",
    "logP": 4
  },
  {
    "given smiles": "Cc1cccc(C)c1C=NN=c1ccn(CCCCCc2ccccc2)cc1",
    "logP": 3.4
  },
  {
    "given smiles": "COc1ccc(C=NN=c2ccn(CCCCCN3C(=O)c4ccccc4C3=O)cc2)cc1",
    "logP": 3.4
  },
  {
    "given smiles": "Cc1cccc(C)c1C=NN=c1ccn(CCCc2ccccc2)cc1",
    "logP": 3.3
  },
  {
    "given smiles": "O=[N+]([O-])c1ccc(C=NN=c2ccn(CCCCCc3ccccc3)cc2)cc1",
    "logP": 4
  },
  {
    "given smiles": "Clc1ccccc1C=NN=c1ccn(CCc2ccccc2)cc1",
    "logP": 3.9
  },
  {
    "given smiles": "CCCCCCn1ccc(=NN=Cc2ccc(C)cc2)cc1",
    "logP": 3.8
  },
  {
    "given smiles": "Cc1ccc(C=NN=c2ccn(Cc3c(Cl)cccc3Cl)cc2)cc1",
    "logP": 3.9
  },
  {
    "given smiles": "Cc1ccc(C=NN=c2ccn(CC=Cc3ccccc3)cc2)cc1",
    "logP": 4
  },
  {
    "given smiles": "C(=NN=c1ccn(CCCc2ccccc2)cc1)c1cccc2ccccc12",
    "logP": 4.3
  },
  {
    "given smiles": "Brc1ccc(C=NN=c2ccn(CCCCc3ccccc3)cc2)cc1",
    "logP": 3.9
  },
  {
    "given smiles": "COc1ccc(C=NN=c2ccn(Cc3c(Cl)cccc3Cl)cc2)cc1",
    "logP": 3.4
  },
  {
    "given smiles": "Brc1ccccc1Cn1ccc(=NN=CCCc2ccccc2)cc1",
    "logP": 3.9
  },
  {
    "given smiles": "Clc1cccc(Cl)c1C=NN=c1ccn(CCCCc2ccccc2)cc1",
    "logP": 4
  },
  {
    "given smiles": "C(=NN=c1ccn(CCCc2ccccc2)cc1)c1c2ccccc2cc2ccccc12",
    "logP": 4.4
  },
  {
    "given smiles": "Fc1cc(Br)ccc1Cn1ccc(=NN=CCCc2ccccc2)cc1",
    "logP": 3.9
  },
  {
    "given smiles": "O=[N+]([O-])c1ccc(C=NN=c2ccn(Cc3ccccc3)cc2)cc1",
    "logP": 3.8
  },
  {
    "given smiles": "Cc1ccccc1C=NN=c1ccn(CCCc2ccccc2)cc1",
    "logP": 4
  },
  {
    "given smiles": "COc1cccc(OC)c1C=NN=c1ccn(-c2c(Cl)cccc2Cl)cc1",
    "logP": 3.4
  },
  {
    "given smiles": "COc1ccc(C=NN=c2ccn(Cc3ccccc3)cc2)cc1",
    "logP": 3.3
  },
  {
    "given smiles": "COc1cccc(OC)c1C=NN=c1ccn(CCCCCc2ccccc2)cc1",
    "logP": 3.5
  },
  {
    "given smiles": "Brc1ccc(C=NN=c2ccn(CCCc3ccccc3)cc2)cc1",
    "logP": 3.9
  }
]
